test: melting temperature; fluorescence melt of hairpins on a sequencing array, two-state fit, raised by 9.35 °C to match UV melts
test.context: sodium 0.088 M
Could you please report measured Tm for the items listed next?
Just the number in °C, nothing appended.

get_value(item= GACGCAGGAAACCACGTC ((((..(....)..)))) , readout=Tm) returns 34.9

get_value(item= GATCATATAGATGATC ((((((....)))))) , readout=Tm) returns 45.6

get_value(item= GATTGCCCGAAAGGGATC (((..(((....)))))) , readout=Tm) returns 25.8

get_value(item= GTCCTTGGAAACAAGGGC (.(((((....))))).) , readout=Tm) returns 52.3

get_value(item= GCACGGCGAAAGCCATGC (((.(((....))).))) , readout=Tm) returns 55.1

get_value(item= GCGCAGCGAAAGCTCGGC ((..(((....)))..)) , readout=Tm) returns 40.3

get_value(item= GTTCGTGGAAACATGGAC ((.(.((....)).).)) , readout=Tm) returns 34.7

get_value(item= GTATGCGAAAGCATTAC ((((((....))).))) , readout=Tm) returns 43.4

get_value(item= GATCAACTCATTGATC ((((((....)))))) , readout=Tm) returns 44.6

get_value(item= GCACTATCGAAAGATTGC (((..(((....)))))) , readout=Tm) returns 30.6

get_value(item= GGAGTCGAAAGACTCTCC ((((((....)))..))) , readout=Tm) returns 51.6

get_value(item= GTACCCGAAAGGGATTAC ((((((....)))..))) , readout=Tm) returns 25.7
